Known mass density of a selection of compounds
Conditions: 298.15 K; 101 kPa; Liquid; Vibrating tube method
Numbers after ± are expanded uncertainties.
Remember to put the unit after the number in your answer.

Measured mass density, CCCCCC : 655.2 ± 0.3 kg/m3

Measured mass density, CO : 786.9 ± 0.2 kg/m3

Measured mass density, CCCCCCC : 679.6 ± 0.3 kg/m3

Measured mass density, CCCC[N+](C)(CCCC)CCCC.O=S(=O)([N-]S(=O)(=O)C(F)(F)F)C(F)(F)F [tributylmethylammonium bis((trifluoromethyl)sulfonyl)imide] : 1261.3 ± 0.2 kg/m3

Continuing:
Measured mass density, CCCC[N+](C)(C)C.O=S(=O)([N-]S(=O)(=O)C(F)(F)F)C(F)(F)F [butyltrimethylammonium bis(trifluoromethylsulfonyl)imide] : 1393 ± 0.2 kg/m3

Measured mass density, CCO : 785.9 ± 0.2 kg/m3

====

Assay: refractive index (Na D-line) (dimensionless)
Settings: 298.15 K; 101 kPa; Liquid; Standard Abbe refractometry
TEST_READOUT: refractive index
Write the value as a bare number.

Examples with answers:
Measured refractive index, CCCCCCC [heptane] : 1.38529

Measured refractive index, CCCC[N+](C)(CCCC)CCCC.O=S(=O)([N-]S(=O)(=O)C(F)(F)F)C(F)(F)F [tributylmethylammonium bis((trifluoromethyl)sulfonyl)imide] : 1.42614

Measured refractive index, CCCC[N+](C)(C)C.O=S(=O)([N-]S(=O)(=O)C(F)(F)F)C(F)(F)F [butyltrimethylammonium bis(trifluoromethylsulfonyl)imide] : 1.40806

Measured refractive index, CO [methanol] : 1.32636

Measured refractive index, CCO [ethanol] : 1.35936

Please find the next molecule below.
Measured refractive index, CCCCCC [hexane] : 1.37241

All values here come from the NIST ThermoML archive (doi:10.1016/j.jct.2013.08.023).
